Overview of reported IC50 across a group of compounds:
biological target: JAK2 (Homo sapiens); construct: recombinant purified GST-tagged catalytic domain for each enzyme; assay: Jak Biochemical HTRF Assay (JAK2); conditions: recombinant purified GST-tagged catalytic domain, [ATP] 8.5 μM, values given as range classes
Sequence (O60674 849-1124 limits assumed): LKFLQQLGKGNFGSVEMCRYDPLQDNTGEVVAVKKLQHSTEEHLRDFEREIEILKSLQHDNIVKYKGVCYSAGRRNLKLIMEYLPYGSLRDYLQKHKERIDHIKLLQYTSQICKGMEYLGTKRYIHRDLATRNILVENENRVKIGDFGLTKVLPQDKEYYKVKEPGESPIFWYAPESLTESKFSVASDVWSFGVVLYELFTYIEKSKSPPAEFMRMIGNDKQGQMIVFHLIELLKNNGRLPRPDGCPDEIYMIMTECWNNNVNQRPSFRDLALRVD
MEASURED_METRIC: IC50

- C[C@@H](Nc1cnnc(-c2c[nH]c3ncc(C#N)cc23)n1)C(=O)NCC(F)(F)F [Example 1-9]: 10 to 500 nM
- N#Cc1cnc2[nH]cc(-c3nncc(N[C@@H]4CCCC[C@@H]4C(=O)NCC(F)(F)F)n3)c2c1 [Example 1-22]: 10 to 500 nM
- NC(=O)c1cnc2[nH]cc(-c3nncc(N[C@@H]4CCCC[C@@H]4C(=O)NCC(F)(F)F)n3)c2c1 [Example 1-23]: 10 to 500 nM
- CC(C)(Nc1cnnc(-c2c[nH]c3ncc(C#N)cc23)n1)C(=O)NCC(F)(F)F [Example 1-7]: 10 to 500 nM
- CC(C)[C@H](Nc1cncc(-c2c[nH]c3ncc(NC(=O)CO)cc23)c1)C(=O)NCC(F)(F)F [Example 5-7]: 10 to 500 nM
- CC1c2ncc(C(F)(F)F)n2CCN1c1cnnc(-c2c[nH]c3ncc(F)cc23)n1 (centres unmarked) [Example 1-10]: 10 to 500 nM
- Cc1ncoc1C(=O)NCc1cnc2[nH]cc(-c3cncc(N[C@H](C(=O)NCC(F)(F)F)C(C)C)c3)c2c1 [Example 10-7]: > 500 nM
- CC(C)(Nc1cncc(-c2c[nH]c3ncc(Cl)cc23)c1)C(=O)NCC(F)(F)F [Example 1-27]: 10 to 500 nM
- Clc1cnc2[nH]cc(-c3cncc(N4CCCC4c4nccs4)c3)c2c1 (centres unmarked) [Example 1-28]: 10 to 500 nM
- CC(C)[C@H](Nc1cncc(-c2c[nH]c3ncc(OCCN(C)C)cc23)c1)C(=O)NCC(F)(F)F [Example 2-13]: > 500 nM
- CC(C)[C@@H](Nc1cncc(-c2c[nH]c3ncc(COC(C)(C)C)cc23)c1)C(=O)NCC(F)(F)F [Example 9-2]: 10 to 500 nM
- CCCNC(=O)Nc1cnc2[nH]cc(-c3cncc(NC(C(=O)NCC(F)(F)F)C(C)C)c3)c2c1 (centres unmarked) [Example 6-2]: 10 to 500 nM
- COC(=O)Nc1cnc2[nH]cc(-c3cncc(NC(C(=O)NCC(F)(F)F)C(C)C)c3)c2c1 (centres unmarked) [Example 7-1]: 10 to 500 nM
- CC(C)C(Nc1cncc(-c2c[nH]c3ncc(OC4CCN(C)CC4)cc23)c1)C(=O)NCC(F)(F)F (centres unmarked) [Example 2-16]: 10 to 500 nM
- CC(C)(Nc1cnnc(-c2c[nH]c3ncc(C(N)=O)cc23)n1)C(=O)NCC(F)(F)F [Example 1-13]: 10 to 500 nM
- NC(=O)c1cnc2[nH]cc(-c3cncc(N[C@@H]4CCCC[C@@H]4C(=O)NCC(F)(F)F)c3)c2c1 [Example 1-40]: ≤ 10 nM
- CCOC(=O)Nc1cnc2[nH]cc(-c3cncc(NC(C(=O)NCC(F)(F)F)C(C)C)c3)c2c1 (centres unmarked) [Example 7-2]: 10 to 500 nM
- CC(C)[C@H](Nc1cncc(-c2c[nH]c3ncc(NC(=O)Nc4ccc(F)cc4F)cc23)c1)C(=O)NCC(F)(F)F [Example 6-3]: 10 to 500 nM
- CC(C)C(Nc1cncc(-c2c[nH]c3ncc(NS(C)(=O)=O)cc23)c1)C(=O)NCC(F)(F)F (racemic) [Example 5-3]: 10 to 500 nM
- CC(C)[C@H](Nc1cncc(-c2c[nH]c3ncc(Cl)cc23)c1)C(=O)NCC(F)(F)F [Example 1-52]: 10 to 500 nM
- CC(C)[C@H](Nc1cncc(-c2c[nH]c3ncc(NS(C)(=O)=O)cc23)c1)C(=O)NCC(F)(F)F [Example 5-4]: > 500 nM
- CC(C)[C@@H](Nc1cncc(-c2c[nH]c3ncc(COCCN4CCN(C(=O)OC(C)(C)C)CC4)cc23)c1)C(=O)NCC(F)(F)F [Example 9-3]: 10 to 500 nM
- CC(C)C(Nc1cncc(-c2c[nH]c3ncc(O)cc23)c1)C(=O)NCC(F)(F)F (centres unmarked) [Example 2-1]: 10 to 500 nM
- CC(C)[C@@H](Nc1cncc(-c2c[nH]c3ncc(Cl)cc23)c1)C(=O)NCC(F)(F)F (single isomer, unassigned) [Example 1-1]: 10 to 500 nM
- CC(C)(O)[C@@H](Nc1cncc(-c2c[nH]c3ncc(Cl)cc23)c1)C(=O)NCC(F)(F)F [Example 1-49]: 10 to 500 nM
- C[C@@H](Nc1cncc(-c2c[nH]c3ncc(Cl)c(F)c23)c1)C(=O)NCC(F)(F)F [Example 1-36]: > 500 nM
- CC(C)C(Nc1cncc(-c2c[nH]c3ncc(CNC(=O)C4CCCCC4)cc23)c1)C(=O)NCC(F)(F)F (centres unmarked) [Example 10-3]: > 500 nM
- CC(C)(Nc1cncc(-c2c[nH]c3ncc(C#N)cc23)c1)C(=O)NCC(F)(F)F [Example 1-44]: 10 to 500 nM
- CC(C)C(Nc1cncc(-c2c[nH]c3ncc(NC(=O)N[C@@H](C)C(=O)O)cc23)c1)C(=O)NCC(F)(F)F (some centres unmarked) [Example 6-4]: 10 to 500 nM

* * *

The entries below are paired with their reported IC50.
Molecular target: JAK3 (Homo sapiens)
Construct: recombinant purified GST-tagged catalytic domain for each enzyme; purchased Invitrogen M4290
Sequence (P52333 822-1111 limits assumed): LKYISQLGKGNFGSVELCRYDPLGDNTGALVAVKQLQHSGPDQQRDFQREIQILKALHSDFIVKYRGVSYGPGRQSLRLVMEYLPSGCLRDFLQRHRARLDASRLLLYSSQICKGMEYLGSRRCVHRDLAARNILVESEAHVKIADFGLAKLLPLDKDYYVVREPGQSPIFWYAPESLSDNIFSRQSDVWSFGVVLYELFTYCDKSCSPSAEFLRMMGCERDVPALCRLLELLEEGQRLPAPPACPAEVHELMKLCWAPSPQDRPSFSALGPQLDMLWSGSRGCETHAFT
Assay: Jak Biochemical HTRF Assay (JAK3)
Conditions: recombinant purified GST-tagged catalytic domain, [ATP] 2.9 μM, values given as range classes
Protocol: Jak Biochemical HTRF Assay Protocol The ability of compounds to inhibit the activity of JAK1, JAK2, JAK3, and Tyk2 was measured using a recombinant purified GST-tagged catalytic domain for each enzyme (Invitrogen JAK1 #M4290, JAK2 #M4290, JAK3 #M4290, Tyk2 #M4290) in an HTRF format biochemical assay. […] Plates were shaken and centrifuged and then incubated 60 minutes at room temperature and then read on a Perkin Elmer Envision (λex=337 nm, λem=665 and 615 nm, TRF delay time=20 μs). […]
MEASURED_METRIC: IC50

• NC(=O)c1cnc2[nH]cc(-c3nncc(N[C@@H]4CCCC[C@@H]4C(=O)NCC(F)(F)F)n3)c2c1 = 10 to 500 nM
• C[C@@H](Nc1cnnc(-c2c[nH]c3ncc(C(F)(F)F)cc23)c1)C(=O)NCC(F)(F)F = ≤ 10 nM
• CC(C)[C@H](Nc1cncc(-c2c[nH]c3ncc(-c4cnn(C)c4)cc23)c1)C(=O)NCC(F)(F)F = 10 to 500 nM
• CC(C)(O)[C@@H](Nc1cncc(-c2c[nH]c3ncc(Cl)cc23)c1)C(=O)NCC(F)(F)F = ≤ 10 nM
• C[C@H](Nc1cc(-c2c[nH]c3ncc(Cl)cc23)cnc1F)C(=O)NCC(F)(F)F = ≤ 10 nM
• C[C@@H](Nc1cncc(-c2c[nH]c3ncc(Cl)cc23)c1)C(=O)NCC(F)(F)F = ≤ 10 nM
• CC(C)[C@@H](Nc1cncc(-c2c[nH]c3ncc(COCCN4CCOCC4)cc23)c1)C(=O)NCC(F)(F)F = ≤ 10 nM
• CC(C)[C@@H](Nc1cncc(-c2c[nH]c3ncc(C(=O)NCC4CCS(=O)(=O)C4)cc23)c1)C(=O)NCC(F)(F)F (stereo partly shown) = ≤ 10 nM
• CNC(=O)Nc1cnc2[nH]cc(-c3cncc(N[C@H](C(=O)NCC(F)(F)F)C(C)C)c3)c2c1 = ≤ 10 nM
• CCC(=O)NCc1cnc2[nH]cc(-c3cncc(N[C@H](C(=O)NCC(F)(F)F)C(C)C)c3)c2c1 = 10 to 500 nM
• COC(=O)Nc1cnc2[nH]cc(-c3cncc(NC(C(=O)NCC(F)(F)F)C(C)C)c3)c2c1 (stereo not shown) = 10 to 500 nM
• CC(C)[C@H](Nc1cncc(-c2c[nH]c3ncc(OCCN4CCOCC4)cc23)c1)C(=O)NCC(F)(F)F = ≤ 10 nM
• CC(C)[C@@H](Nc1cncc(-c2c[nH]c3ncc(COC(C)(C)C)cc23)c1)C(=O)NCC(F)(F)F = 10 to 500 nM
• CC(C)[C@H](Nc1cncc(-c2c[nH]c3ncc(N)cc23)c1)C(=O)NCC(F)(F)F = 10 to 500 nM
• CC1c2ncc(C(F)(F)F)n2CCN1c1cnnc(-c2c[nH]c3ncc(F)cc23)n1 (stereo not shown) = 10 to 500 nM
• O=C(NCC(F)(F)F)[C@H]1CCCC[C@H]1Nc1cncc(-c2c[nH]c3ncc(F)cc23)c1 = ≤ 10 nM
• CC(C)C(Nc1cncc(-c2c[nH]c3ncc(-c4cnn(C)c4)cc23)c1)C(=O)NCC(F)(F)F (racemic) = ≤ 10 nM
• CC(C)[C@@H](Nc1cnnc(-c2c[nH]c3ncc(Cl)cc23)n1)C(=O)NCC(F)(F)F = ≤ 10 nM
• CC(C)[C@@H](Nc1cncc(-c2c[nH]c3ncc(-c4cnn(C)c4)cc23)c1)C(=O)NCC(F)(F)F = ≤ 10 nM
• C[C@@H](Nc1cncc(-c2c[nH]c3ncc(Cl)c(F)c23)c1)C(=O)NCC(F)(F)F = 10 to 500 nM
• CC(C)[C@H](Nc1cncc(-c2c[nH]c3ncc(OC4Cc5ccccc5C4)cc23)c1)C(=O)NCC(F)(F)F = ≤ 10 nM
• CC(C)C(Nc1cncc(-c2c[nH]c3ncc(O)cc23)c1)C(=O)NCC(F)(F)F (stereo not shown) = ≤ 10 nM
